Where do these numbers come from? They come from patent US20220204449A1.

- SYSTEM_UNDER_TEST: human μ-opioid receptor, OPRM (Homo sapiens)
- Construct: host or cells: HEK-293 overexpressing β-arrestin2 fused to a β-galactosidase fragment
- Sequence (P35372 whole entry, the tested form may be a part): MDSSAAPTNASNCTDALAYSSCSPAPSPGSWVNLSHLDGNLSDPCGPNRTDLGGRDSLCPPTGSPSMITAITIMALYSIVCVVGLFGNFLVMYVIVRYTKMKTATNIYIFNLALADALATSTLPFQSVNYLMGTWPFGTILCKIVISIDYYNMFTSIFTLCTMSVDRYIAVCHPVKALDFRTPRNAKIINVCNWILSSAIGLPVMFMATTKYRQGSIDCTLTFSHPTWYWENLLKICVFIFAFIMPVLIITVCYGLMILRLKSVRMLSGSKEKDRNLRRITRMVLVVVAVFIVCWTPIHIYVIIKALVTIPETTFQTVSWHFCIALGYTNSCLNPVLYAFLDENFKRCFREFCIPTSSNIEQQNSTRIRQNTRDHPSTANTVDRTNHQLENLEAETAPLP
- PROTOCOL_SUMMARY: cAMP accumulation assay (Gi pathway), OPRM cell line
- Type: cell-based
- TEST_PARAMETERS: Table 1; cAMP; normalized to reference agonist DAMGO
# Emax listing for each entry below
Write down the numeric answer in % and omit the unit.

Problem: Could you share which Emax value was measured for Cc1ccccc1NC(=O)NCC(c1ccc2c(c1)CCO2)N(C)C (racemic) [Compound 3] ?
Solution: 112

Problem: Could you share which Emax value was measured for COc1ccsc1CNCC[C@@]1(c2ccccn2)CCOC2(CCCC2)C1 [TRV130, reference compound] ?
Solution: 101

Problem: Could you share which Emax value was measured for CN(C)C(CNC(=O)Cc1ccc2c(c1)OCCO2)c1ccccc1 (racemic) [Compound 1] ?
Solution: 102

Problem: Could you share which Emax value was measured for CN1CCc2cc(C(CNC(=O)Nc3ccc(F)cc3)N(C)C)ccc21 (racemic) [Compound 2] ?
Solution: 109
